system: Plasmodium berghei; assay: Luciferase/luciferin-expressing antifolate-resistant parasites were used to infect a culture of HepG2 cells that were pre-incubated with compounds. Infected hepatocytes emit light due to the luciferase reaction. Assay results are presented as the percent inhibition of light emission compared to control. […]; assay type: functional; settings: sporozoite, PBLUC_HILL_SLOPE 5.7, PBLUC_R_SQUARED 0.538, read-out: LUCIFERASE INFECTION ASSAY - IC50
pIC50: −log10 of the molar value.
assay.metric: pIC50

>>> meas_value("CCOC(=O)C1=C(c2ccccc2)N=C(N)NC1c1ccc(OCc2ccc(Cl)cc2)c(OC)c1 (stereo unspecified)")
5.15

====

tested on: Plasmodium berghei; assay: Luciferase/luciferin-expressing antifolate-resistant parasites were used to infect a culture of HepG2 cells that were pre-incubated with compounds. Infected hepatocytes emit light due to the luciferase reaction. Assay results are presented as the percent inhibition of light emission compared to control. […]; type: functional; details: sporozoite, PBLUC_HILL_SLOPE 4.79, PBLUC_R_SQUARED 0.138, read-out: LUCIFERASE INFECTION ASSAY - IC50
assay.metric: IC50

>>> meas_value("O=C(NNC(=O)c1cc2c(s1)CCCCC2)c1ccccn1")
"5.28 µM"

====

test system: Plasmodium berghei; test: Luciferase/luciferin-expressing antifolate-resistant parasites were used to infect a culture of HepG2 cells that were pre-incubated with compounds. Infected hepatocytes emit light due to the luciferase reaction. Assay results are presented as the percent inhibition of light emission compared to control. […]; format: functional; conditions: sporozoite, read-out: LUCIFERASE INFECTION ASSAY - IC90
assay.metric: IC90

>>> meas_value("CCOC(=O)c1c(NC(=O)COC(=O)c2ccccc2Nc2cccc(C)c2C)sc(C(=O)N(C)C)c1C")
"> 10 µM"
>>> meas_value("O=C(Nc1ccc[n+](Cc2ccccc2)c1)c1ccccc1-c1ccc(C(F)(F)F)cc1")
"> 10 µM"
>>> meas_value("CCCc1cc(=O)nc(SCC(=O)C23CC4CC(CC(C4)C2)C3)[nH]1")
"9.67 µM"
>>> meas_value("CN(CCCc1[nH]nc(N)c1C#N)c1nc(-c2ccccn2)nc2sc(-c3ccccc3)cc12")
"> 10 µM"
>>> meas_value("Cc1cccc(N2CCN(c3cc(C)nc4c(-c5ccccc5)c(C)nn34)CC2)n1")
"> 8.28 µM"

====

tested on: Plasmodium berghei; assay: Luciferase/luciferin-expressing antifolate-resistant parasites were used to infect a culture of HepG2 cells that were pre-incubated with compounds. Infected hepatocytes emit light due to the luciferase reaction. Assay results are presented as the percent inhibition of light emission compared to control. […]; type: functional; details: sporozoite, PBLUC_HILL_SLOPE 3.75, PBLUC_R_SQUARED 0.743, read-out: LUCIFERASE INFECTION ASSAY - IC50
assay.metric: IC50 (µM)

>>> meas_value("CCCn1c(N)c(C(=O)COC(=O)C2(c3ccc(F)cc3)CCCC2)c(=O)[nH]c1=O")
4.66

====

test system: Plasmodium berghei; test: Luciferase/luciferin-expressing antifolate-resistant parasites were used to infect a culture of HepG2 cells that were pre-incubated with compounds. Infected hepatocytes emit light due to the luciferase reaction. Assay results are presented as the percent inhibition of light emission compared to control. […]; type: functional; conditions: sporozoite, HEPG2TOX_HILL_SLOPE 1.88, HEPG2TOX_R_SQUARED 0.855, PBLUC_HILL_SLOPE 16.2, PBLUC_R_SQUARED 0.661, read-out: LUCIFERASE INFECTION ASSAY - IC50
assay.metric: IC50 (µM)

>>> meas_value("CCCCc1ccc(C(=O)Nc2nc3ccc(C)cn3c2C(=O)NCCC)cc1")
2.78

====

tested on: Plasmodium berghei; assay: Luciferase/luciferin-expressing antifolate-resistant parasites were used to infect a culture of HepG2 cells that were pre-incubated with compounds. Infected hepatocytes emit light due to the luciferase reaction. Assay results are presented as the percent inhibition of light emission compared to control. […]; assay type: functional; details: sporozoite, FFLUC_HILL_SLOPE 15.8, FFLUC_R_SQUARED 0.442, HEPG2TOX_HILL_SLOPE 1.06, HEPG2TOX_R_SQUARED 0.598, PBLUC_HILL_SLOPE 0.733, PBLUC_R_SQUARED 0.344, read-out: LUCIFERASE INFECTION ASSAY - IC50
pIC50: −log10 of the molar value.
assay.metric: pIC50

>>> meas_value("CN(Cc1cccc(Cl)c1Cl)C(C(=O)Nc1ccc(Cl)c(C(F)(F)F)c1)c1ccccc1 (stereo unspecified)")
5.13

====

tested on: Plasmodium berghei; test: Luciferase/luciferin-expressing antifolate-resistant parasites were used to infect a culture of HepG2 cells that were pre-incubated with compounds. Infected hepatocytes emit light due to the luciferase reaction. Assay results are presented as the percent inhibition of light emission compared to control. […]; type: functional; details: sporozoite, read-out: LUCIFERASE INFECTION ASSAY - IC50
assay.metric: IC50

>>> meas_value("COCC(C)NC(=O)c1cccnc1-c1nc2ccccc2s1 (stereo not given)")
"> 10.1 µM"
>>> meas_value("COc1cc(NS(=O)(=O)c2ccc3ccccc3c2)c(OC)cc1Cl")
"2.78 µM"
>>> meas_value("O=C(c1ccc(Cl)cc1)N1CCCC(C(=O)N2CCN(Cc3ccc4c(c3)CCO4)CC2)C1 (stereo not given)")
"> 10 µM"
>>> meas_value("CC(C)CNC(=O)c1cc(Br)ccc1O")
"> 10 µM"
>>> meas_value("Fc1cccc(F)c1NC(=S)Nc1cc(C(F)(F)F)cc(C(F)(F)F)c1")
"> 8.24 µM"
>>> meas_value("Cc1ccnc(-n2c(C)c(C)c3c2ncn2nc(Cc4ccccc4)nc32)c1")
"> 8.96 µM"
>>> meas_value("COc1ccc(OC)c(S(=O)(=O)Nc2ccc(S(=O)(=O)Nc3cc(C(F)(F)F)cc(C(F)(F)F)c3)cc2)c1")
"> 5.65 µM"
>>> meas_value("CCn1c(-c2ccccc2)c(C(=O)COc2ccccc2OC)c2ccccc21")
"> 10 µM"
>>> meas_value("COc1ccc(S(=O)(=O)N2CCN(c3cc(C)c4ccccc4n3)CC2)cc1")
"> 8.3 µM"
>>> meas_value("CC(C)c1noc(CCC(=O)Nc2ccc(F)cc2F)n1")
"> 10 µM"

====

Below, each entry is listed with its recorded IC90.
test system: Plasmodium berghei; experiment: Luciferase/luciferin-expressing antifolate-resistant parasites were used to infect a culture of HepG2 cells that were pre-incubated with compounds. Infected hepatocytes emit light due to the luciferase reaction. Assay results are presented as the percent inhibition of light emission compared to control. […]; format: functional; settings: sporozoite, read-out: LUCIFERASE INFECTION ASSAY - IC90
assay.metric: IC90

>>> meas_value("COCCN(Cc1nc(=O)c2ccccc2[nH]1)C(=O)C1=NN(c2ccccc2)C(c2ccccc2)C1 (stereo not drawn)")
"> 10 µM"
>>> meas_value("Cc1cc(NCc2ccccn2)n2ncc(-c3ccccc3Cl)c2n1")
"> 9.43 µM"
>>> meas_value("C=CCN(c1ccccc1)S(=O)(=O)c1cccc(C(=O)Nc2ccnn2C(C)C2CC2)c1 (stereo not drawn)")
"> 10 µM"
>>> meas_value("Clc1ccc(N/N=C/c2sccc2Oc2ccccc2)cc1")
"> 10 µM"
>>> meas_value("O=C(NNC1c2ccccc2-c2ccccc21)c1ccccc1")
"> 10 µM"
>>> meas_value("Cc1ccc(/C=N/n2c(-c3cc(C)c(C)cc3C)cs/c2=N\\CC2CCCO2)o1 (stereo not drawn)")
"3.52 µM"
>>> meas_value("O=C(OCc1cc(=O)n2cc(Br)ccc2n1)C1(c2ccccc2)CC1")
"> 10 µM"
>>> meas_value("CCn1c2ccccc2c2cc(NC(=O)c3ccncc3)ccc21")
"3.82 µM"
>>> meas_value("O=C(NC1CCN(c2nccc(C(F)(F)F)n2)CC1)c1cccs1")
"4.85 µM"
>>> meas_value("N#Cc1ccc(C(=O)Nc2cccc(Oc3ccccc3)c2)cc1")
"> 10 µM"
>>> meas_value("O=C(CN1CSCC1=O)Nc1nc2ccccc2[nH]1")
"> 10 µM"
>>> meas_value("CCCCc1ccc(C(=O)Nc2nc3ccccn3c2C(=O)NCCCN2CCOCC2)cc1")
"> 7.12 µM"
>>> meas_value("COc1ccc(/C=C(/C(=O)c2cccs2)N2C=CC=CC2=C(C#N)C#N)cc1")
"> 10 µM"
>>> meas_value("CNS(=O)(=O)c1cc(NS(=O)(=O)/C=C/c2ccccc2)ccc1C")
"> 10 µM"
>>> meas_value("C/C(=N\\N1CCCCC1)c1ccccc1O")
"> 10 µM"
>>> meas_value("C#CCSc1nnc(-c2ccc(C(C)(C)C)cc2)n1C")
"5.91 µM"
>>> meas_value("OC(c1ccc(Cl)cc1)c1nnc(Nc2ccc(Oc3ccccc3)cc2)s1 (stereo not drawn)")
"> 10 µM"
>>> meas_value("CON(C)S(=O)(=O)c1ccc(NC(=O)COc2cccc(C(C)(C)C)c2)cc1")
"> 10 µM"
>>> meas_value("CCc1ccc(C2NC(=O)NC(C)=C2C(=O)c2ccccc2)cc1 (stereo not drawn)")
"> 10 µM"
>>> meas_value("CCCNC(=O)c1c(NC(=O)c2ccccc2)nc2ccc(C)cn12")
"7.77 µM"
>>> meas_value("Cc1ccc(-c2nc(SCc3nc(=O)c4c(-c5ccccc5)csc4[nH]3)[nH]c2-c2ccc(C)cc2)cc1")
"> 10 µM"
>>> meas_value("CC(Cc1ccco1)NCc1ccc(-n2ccnc2)cc1 (stereo not drawn)")
"> 10 µM"
>>> meas_value("CN(Cc1ccc(C(N)=O)cc1)c1ncnc2ccccc12")
"1.53 µM"
